Data provenance: ChEMBL document CHEMBL4002623

- System: Enterobacter cloacae
- assay comment: Antibacterial activity against Enterobacter cloacae 45301 by agar dilution method
- Format: functional
Task for the reader: assign each of the following molecules its reported MIC.

1) CC(C)NC(=N)c1ccc2cc(-c3ccc(Oc4ccc(-c5cc6ccc(C(=N)NC(C)C)cc6[nH]5)cc4)cc3)[nH]c2c1
64 µg/mL
2) N=C(NC1CC1)c1ccc2cc(-c3ccc(Oc4ccc(-c5cc6ccc(C(=N)NC7CC7)cc6[nH]5)cc4)cc3)[nH]c2c1
> 128 µg/mL
3) N=C(c1ccc2cc(-c3ccc(Oc4ccc(-c5cc6ccc(C(=N)N7CCC7)cc6[nH]5)cc4)cc3)[nH]c2c1)N1CCC1
> 128 µg/mL

Go through the list and state MIC for each entry.
1. N=C(c1ccc2cc(-c3ccc(Oc4ccc(-c5cc6ccc(C(=N)N7CCOCC7)cc6[nH]5)cc4)cc3)[nH]c2c1)N1CCOCC1
2. CNC(=N)c1ccc2cc(-c3ccc(Oc4ccc(-c5cc6ccc(C(=N)NC)cc6[nH]5)cc4)cc3)[nH]c2c1
3. N=C(c1ccc2cc(-c3ccc(Oc4ccc(-c5cc6ccc(C(=N)N7CCCC7)cc6[nH]5)cc4)cc3)[nH]c2c1)N1CCCC1

Reply:
1: > 128 µg/mL; 2: > 128 µg/mL; 3: 64 µg/mL

Ask: Fill in the blank: the reported MIC of CC1CCN(C(=N)c2ccc3cc(-c4ccc(Oc5ccc(-c6cc7ccc(C(=N)N8CCC(C)CC8)cc7[nH]6)cc5)cc4)[nH]c3c2)CC1 is ____.
Reply: > 128 µg/mL

* * *

- Tested on: Enterobacter cloacae
- assay comment: Antibacterial activity against Enterobacter cloacae 45301 by agar dilution method
- Format: functional
I'd be grateful if you could share measured MIC for these entries.

1. c1cc(-c2cc3ccc(C4=NCCCN4)cc3[nH]2)ccc1Oc1ccc(-c2cc3ccc(C4=NCCCN4)cc3[nH]2)cc1
64 µg/mL
2. N=C(c1ccc2cc(-c3ccc(Oc4ccc(-c5cc6ccc(C(=N)N7CCCCC7)cc6[nH]5)cc4)cc3)[nH]c2c1)N1CCCCC1
> 128 µg/mL
3. CN(C)C(=N)c1ccc2cc(-c3ccc(Oc4ccc(-c5cc6ccc(C(=N)N(C)C)cc6[nH]5)cc4)cc3)[nH]c2c1
64 µg/mL
4. N=C(NC1CCCC1)c1ccc2cc(-c3ccc(Oc4ccc(-c5cc6ccc(C(=N)NC7CCCC7)cc6[nH]5)cc4)cc3)[nH]c2c1
> 128 µg/mL
5. C[C@H]1COc2c(N3CCN(C)CC3)c(F)cc3c(=O)c(C(=O)O)cn1c23.C[C@H]1COc2c(N3CCN(C)CC3)c(F)cc3c(=O)c(C(=O)O)cn1c23.O [LEVOFLOXACIN]
0.06 µg/mL

For every item in the list below, what is its measured MIC?
1. N=C(NC1CCCCC1)c1ccc2cc(-c3ccc(Oc4ccc(-c5cc6ccc(C(=N)NC7CCCCC7)cc6[nH]5)cc4)cc3)[nH]c2c1
2. CC1CC(C)CN(C(=N)c2ccc3cc(-c4ccc(Oc5ccc(-c6cc7ccc(C(=N)N8CC(C)CC(C)C8)cc7[nH]6)cc5)cc4)[nH]c3c2)C1 (configuration not stated)

Reply:
128 µg/mL
> 128 µg/mL

* * *

What MIC was measured for each of the following?
- Test system: Staphylococcus aureus
- assay comment: Antibacterial activity against methicillin-resistant Staphylococcus aureus ATCC 33591 by agar dilution method
- Format: functional
Kindly write the number and append the unit.

1) N=C(NC1CCC1)c1ccc2cc(-c3ccc(Oc4ccc(-c5cc6ccc(C(=N)NC7CCC7)cc6[nH]5)cc4)cc3)[nH]c2c1
64 µg/mL
2) C[C@H]1COc2c(N3CCN(C)CC3)c(F)cc3c(=O)c(C(=O)O)cn1c23.C[C@H]1COc2c(N3CCN(C)CC3)c(F)cc3c(=O)c(C(=O)O)cn1c23.O
0.125 µg/mL

Ask: Which MIC value is on record for N=C(c1ccc2cc(-c3ccc(Oc4ccc(-c5cc6ccc(C(=N)N7CCOCC7)cc6[nH]5)cc4)cc3)[nH]c2c1)N1CCOCC1 ?
Reply: 2 µg/mL
